assay-protocol: acute toxicity after intraperitoneal administration in rape oil
assay-setup: mouse, in vivo, ip
value-type: LD50 (mg/kg)
Numeric only. Scale: mg/kg

Please fill in: LD50 reported for CC(/C=C/c1c(C)c(C)c2c(c1C)CCC(C)(C)O2)=C\C=C\C(C)=C\C(=O)O = 950

----------
assay-protocol: acute toxicity after intraperitoneal administration in rape oil
assay-setup: mouse, in vivo, ip
value-type: LD50 at 24 h

Please fill in: LD50 at 24 h reported for CC(/C=C/c1c(C)c(C)c2c(c1C)CCC(C)(C)O2)=C\C=C\C(C)=C\C(=O)O = > 4000 mg/kg
